The measured values listed here are drawn from patent US20240409557A1.

Please respond with reported IC50 for every item in the list.
experimental system: 15-PGDH in A549 cells (Homo sapiens)
Construct: endogenous in cells
Sequence (P15428 whole entry): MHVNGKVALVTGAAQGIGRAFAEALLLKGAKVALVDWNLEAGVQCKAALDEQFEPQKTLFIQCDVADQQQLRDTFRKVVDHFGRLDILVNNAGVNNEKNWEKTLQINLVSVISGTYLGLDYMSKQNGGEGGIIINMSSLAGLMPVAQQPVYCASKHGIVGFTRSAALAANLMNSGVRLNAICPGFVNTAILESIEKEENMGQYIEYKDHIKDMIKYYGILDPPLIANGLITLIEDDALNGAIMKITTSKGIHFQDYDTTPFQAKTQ
assay summary: A549 cellular 15-PGDH assay (PGE2 accumulation, HTRF)
test parameters: interleukin-stimulated, inhibitor 24 hrs, PGE2 by competitive HTRF, read-out: A549 Cell Assay IC50
Experimental: This assay was used for the quantification of IL-13 induced Native Prostaglandin E2 (PGE2) produced by A549 cells (epithelial cells from lung carcinoma) in cell culture supernatants. […] PGE2 was detected in a competitive HTRF assay by using anti PGE2 antibody labeled with Europium cryptate, and PGE2 labeled with deuterium. […] From this binding data, IC50 values were calculated.
One number for each entry, in nM.

Cn1cc2cc(-c3ccc4cc([C@@H](O)C(F)(F)F)sc4n3)cnc2n1 (single isomer, unassigned) [Compound B23S] = 19.2
Cn1nnc2cc(-c3ccc4ccc([C@H](O)C5CCOCC5)cc4n3)cnc21 (single isomer, unassigned) = 289
Cn1cc2cc(-c3ccc4nc([C@]5(O)C[C@@]6(CC6(F)F)C5)sc4n3)cnc2n1 (single isomer, unassigned) [Compound C115T] = 1.39
Cn1cc2cc(-c3ccc4cc(C(O)C5CCOCC5)sc4n3)cnc2n1 (stereo not drawn) = 0.957
CC(O)c1cc2c(-c3ccnn3C)cc(-c3cnc4nn(C)cc4c3)nc2s1 (stereo not drawn) = 39.4

Provide IC50 values for the following items, in order.
1. CC(C)n1cc2cc(-c3ccc4cc([C@H](O)C5CC(F)(F)C5)sc4n3)cnc2n1 (single isomer, unassigned) [Compound B64R]
2. Cn1cc2cc(-c3ccc4sc([C@]5(O)C[C@](C)(C#N)C5)cc4n3)cnc2n1 (single isomer, unassigned) [Compound C106T]
3. Cn1cc2cc(-c3ccc4cc([C@]5(O)C[C@@]6(CCO6)C5)sc4n3)cnc2n1 (single isomer, unassigned) [Compound C56T]
4. Cc1nc2ccc(-c3ccc4cc(C5(O)CC(F)(F)C5)sc4n3)cc2o1

Key:
1: 0.311; 2: 45.2; 3: 0.997; 4: 2.87
